Biological target: BoNT/A1 holotoxin (Hall hyper) (Clostridium botulinum, UniProt P0DPI0 2-1296)
Assay: yeast scFv FACS
OBSERVATION TYPE: pKd
Entry type: numeric. Quantity: pKd, the -log10 of concentration in molar units.

Entry 12A11 scFv (scFv, mouse) scFv: DVQLQESGPGLVKPSQSLSLTCSVTGYSITGGYYWNWIRQFPGNKLEWMGYISYDGSNNYNPSLKNRISITRDTSKNQFFLKLNSVTTEDTATYYCARNMGLWYFDVWGTGTPVTVSAVDLKSGGSTSGSGKPGSGEGSSGSARQIVLTQSPANLSASPGEKVTMTCSASSSVSYMHWYQQKPGSSPKPWIYATSNLASGVPARFSGSGSGTSYSLTISRMEAEDAATYYCQQWSSYPPMYTFGGGTKLELK has what pKd? 9.18

Entry source: patent US20220089784A1
